- experimentSummary: Dynamic moisture sorption gravimetry (DMSG)
- Type: physicochemical
- conditionDetails: moisture sorption weight change, 0-90% RH
Below is a list of entries, each paired with its recorded Δ-Wt (%) DMSG: 0-90% RH value.
Could you give me the number in %? Just the number is fine.

>>> df
                                   compound  valuemeasured
0  CC(=O)Nc1cc(N2CCCNCC2)ccc1S(=O)(=O)c1cccc(F)c1.Cc1ccc(S(=O)(=O)O)cc1 [Example 8]            1.9
1  CC(=O)Nc1cc(N2CCCNCC2)ccc1S(=O)(=O)c1cccc(F)c1.O=C(O)CC(O)(CC(=O)O)C(=O)O [Example 6]            2.5
2  CC(=O)Nc1cc(N2CCCNCC2)ccc1S(=O)(=O)c1cccc(F)c1.O=C(O)C(F)(F)F [Example 3]            0.8
3  CC(=O)Nc1cc(N2CCCNCC2)ccc1S(=O)(=O)c1cccc(F)c1.Cl [Example 2]            0.8
4  CC(=O)Nc1cc(N2CCCNCC2)ccc1S(=O)(=O)c1cccc(F)c1.O=C(O)/C=C\C(=O)O [Example 4]            0.7

Next:
Lab note: CC(=O)Nc1cc(N2CCCNCC2)ccc1S(=O)(=O)c1cccc(F)c1.O=C(O)/C=C/C(=O)O [Example 9] gave Δ-Wt (%) DMSG: 0-90% RH of 3.0
